- Test system: ABL2;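 also: KINOMEscan kinase panel screen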
- measurement.context: concentration: 1 μM, replicates: in singlicate; n = 1
assay.readout: %Inh (%)
# value in %; strip the unit string

Consider COc1ccc(-c2cc3c(C)nc(N)nc3n([C@H]3CC[C@H](OCCO)CC3)c2=O)cn1 . Its measured %Inh is 0

Reported %Inh ( COc1ccc(CNC(=O)NC2CCN(c3ccnc(Nc4ccc(F)cc4)n3)C2)cc1 (stereo not drawn) ) = 2

Kindly note the recorded %Inh for CCn1c(-c2ccoc2)nc2cnccc21 , which is 10

// recorded %Inh for Cn1c(=O)c(F)c(Nc2ccc(I)cc2F)c2c(=O)n(OC[C@H](O)CO)cnc21 : 3

Briefly, %Inh measured for Cc1ccc(Oc2ccc(Nc3ncnc4cc[nH]c34)cc2C)cn1 : 0

# %Inh (compound: Cc1nnc(-c2ccc(C)c(-c3ccc(C(=O)O)cc3)c2)o1 ) is 0
